All figures here come from patent US20180016324A1.

The reader will find reported koff values listed item by item below.
- tgt: T1, ZIKV (prM80E) with a C-terminal myc-myc-hexahistidine tag (Zika virus, UniProt A0A024B7W1 104-694)
- T1 construct: also called ZIKV (prM80E)-mmH; ZIKV-mmH
- assayRemarks: SPR, mAb captured, 37C, pH 7.4
Give just the number in s⁻¹; leave the unit off.

INSERT INTO results (binder, reportedendpoint, measvalue) VALUES
  ('H4H25637P (antibody, V domains shown) VH: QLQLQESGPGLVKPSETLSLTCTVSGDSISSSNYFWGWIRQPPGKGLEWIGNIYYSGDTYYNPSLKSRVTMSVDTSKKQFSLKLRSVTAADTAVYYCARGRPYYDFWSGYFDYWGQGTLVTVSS VL: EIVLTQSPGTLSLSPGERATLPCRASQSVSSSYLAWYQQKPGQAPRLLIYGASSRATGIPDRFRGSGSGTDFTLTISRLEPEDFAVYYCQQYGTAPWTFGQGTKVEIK', 'koff', 0.0118);

Determine its reported koff: H4H25602P (antibody, V domains shown) VH: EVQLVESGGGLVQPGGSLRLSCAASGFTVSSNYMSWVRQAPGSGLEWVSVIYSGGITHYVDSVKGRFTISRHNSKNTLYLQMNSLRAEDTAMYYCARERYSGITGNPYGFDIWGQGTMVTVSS VL: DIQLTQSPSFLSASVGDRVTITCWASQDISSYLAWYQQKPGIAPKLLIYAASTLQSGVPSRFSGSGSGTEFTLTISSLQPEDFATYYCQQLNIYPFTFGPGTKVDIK 0.000356

Determine its reported koff: H4H25617P (antibody, V domains shown) VH: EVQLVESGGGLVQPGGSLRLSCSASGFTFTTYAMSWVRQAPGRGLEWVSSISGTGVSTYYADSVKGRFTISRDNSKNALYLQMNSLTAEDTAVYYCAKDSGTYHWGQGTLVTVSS VL: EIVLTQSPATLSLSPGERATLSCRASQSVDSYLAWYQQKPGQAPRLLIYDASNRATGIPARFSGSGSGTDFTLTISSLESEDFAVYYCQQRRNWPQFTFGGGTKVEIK 0.00602
